Reported pIC50 values follow for various compounds
target_of_assay: Aldo-keto reductase family 1 member B1 (Bos taurus, UniProt P16116)
Please keep in mind that pIC50 is minus log10 of the molar concentration; only the number is needed.

COc1ccc(C(=O)N(CC(=O)O)OCc2ccc(Cl)cc2)cc1 | 5.20

We next turn to a different compound, shown below.
In: Which pIC50 is reported for this compound? COc1ccc(C(=O)N(CC(=O)O)OCc2ccccc2)cc1
Out: 5.46

The measured values listed here are drawn from ChEMBL document CHEMBL4033633.
